Recorded values, source ChEMBL document CHEMBL1201862.

Would you mind telling me the reported GI50 of each entry?
System: COLO 205
Method description: NCI tumour cell line growth inhibition, 48 h
Active and inactive are the calls of the source. Cut-off read from the data, not from the text of the source: active = GI50 up to about 1.1 µM and inactive = higher.

In plain terms, Nc1nc[n+](Cc2ccccc2CCO)c2[nH]cnc12 has a documented GI50 of > 100 µM (inactive)

In plain terms, O=S1(=O)OCCOS(=O)(=O)C1(I)I has a documented GI50 of 16.9 µM (inactive)

In plain terms, COc1ccc(OC)c2sc(N3C(=O)/C(=C/c4cccc(Oc5ccccc5)c4)N=C3c3ccccc3)nc12 has a documented GI50 of 51.8 µM (inactive)

In plain terms, CCOC(=O)[C@H]1Nc2ccc(OC)cc2C2c3ccccc3CC21 (stereo partly drawn) has a documented GI50 of > 100 µM (inactive)

In plain terms, CC1(C)OCC(C2OC3OC(C)(C)OC3C2N)O1 (stereo not drawn) has a documented GI50 of > 100 µM (inactive)

In plain terms, CCCCCCCCCCCCCCCCCCNc1ccn(C2OC(COP(=O)(O)OCC(COP(=O)(O)OCC3OC(n4cc(C)c(=O)[nH]c4=O)CC3N=[N+]=[N-])OCCCCCCCCCCCCCCCCCC)C(O)C2O)c(=O)n1 (stereo not drawn) has a documented GI50 of 54.5 µM (inactive)

In plain terms, CC(C)(C)c1cc(C(O)(C(F)(F)F)C(F)(F)F)c2c(c1)C(C(F)(F)F)(C(F)(F)F)OC(c1ccccc1)(C(C)(C)C)N2 (stereo not drawn) has a documented GI50 of 4.08 µM (inactive)

In plain terms, CC1=NNC(=S)NCCCN2CCN(CCCNC(=S)NN=C(C)C=NNC(=S)NCCCN3CCN(CCCNC(=S)NN=C1)CC3)CC2 has a documented GI50 of > 100 µM (inactive)

In plain terms, O/N=N\c1nc(-c2cccnc2)nc2ccccc12 has a documented GI50 of 75.5 µM (inactive)

In plain terms, COC(=O)[C@H](Cc1ccccc1)NC(=O)c1ccc(CNC(=O)/C=C/c2cccc(Oc3ccccc3)c2)cc1 has a documented GI50 of 21.3 µM (inactive)

In plain terms, CCOP(=O)(OCC)C(N)c1ccc(Cl)cc1 (stereo not drawn) has a documented GI50 of > 100 µM (inactive)

In plain terms, CN(c1cn(C2CC[C@@H](CO)O2)c(=O)[nH]c1=O)C1CCCCC1 (stereo partly drawn) has a documented GI50 of > 100 µM (inactive)

In plain terms, N=C(N)NS(=O)(=O)c1ccc(NCc2cccc3c(=O)c4ccc(Cl)cc4oc23)cc1 has a documented GI50 of > 11.6 µM (inactive)

====

System: Hs-578T
Method description: NCI tumour cell line growth inhibition, 48 h
The source made the active and inactive calls. No stated cut-off is given here; in the data, active = GI50 up to about 1.1 µM and inactive = higher.
Parameter measured: GI50

In plain terms, C(=N\Nc1nnc2c(n1)[nH]c1ccccc12)/c1cccnc1 has a documented GI50 of > 100 µM (inactive)

In plain terms, Cc1ccc(OCC2OC(n3cnc4nc(Nc5ccc(Cl)c(Cl)c5)nc(Cl)c43)CC2Oc2ccc(C)cc2)cc1 (centres undefined) has a documented GI50 of > 100 µM (inactive)

In plain terms, Cc1ccc(C(=O)O)c(/C=C2\Cc3ccc(C)cc3C2=O)c1 has a documented GI50 of 64.3 µM (inactive)

In plain terms, CC1=C(O)C(=O)c2ccccc2C1=O has a documented GI50 of 78.2 µM (inactive)

====

Would you mind telling me the reported GI50 of each entry?
Test system: SNB-19
Method description: NCI tumour cell line growth inhibition, 48 h
Activity calls are given as the source filed them. Rule as the data show it: active = GI50 up to about 1.1 µM and inactive = higher.

In plain terms, O=C1C(O)=C(C(CCc2ccccc2)C2=C(O)C(=O)c3ccccc3C2=O)C(=O)c2ccccc21 has a documented GI50 of > 100 µM (inactive)

In plain terms, Nc1nc(-c2cccnc2)cc(-c2cc(-c3cccnc3)nc(N)n2)n1 has a documented GI50 of > 100 µM (inactive)

In plain terms, COC(=O)C1C(O)C(C)C(O)C(C)/C=C\C=C(C)C(=O)Nc2c(C)c(OC(C)=O)c3c(c2O)C(=O)C(C)=C2OCOC(=C23)C(C)=CC(C)(O)C(O)C(C)C1O (stereo not drawn) has a documented GI50 of > 75 µM (inactive)

In plain terms, CC(=O)c1ccc(NCc2cc(O)ccc2O)cc1 has a documented GI50 of 38.8 µM (inactive)

In plain terms, NCC1CCN(c2nc3ccccc3c3c2CCCC3)CC1 has a documented GI50 of 10.4 µM (inactive)

In plain terms, COc1cc2nc(-c3ccc4ccccc4c3)nc(O)c2cc1OC has a documented GI50 of 23.8 µM (inactive)

In plain terms, CCS(=O)(=O)CCn1c(=O)c2c(ncn2C)n(C)c1=O has a documented GI50 of > 100 µM (inactive)

In plain terms, COc1cc(-c2c(C(C)=O)c(-c3ccccc3)n(C3OC(COC(C)=O)C(OC(C)=O)C(OC(C)=O)C3OC(C)=O)c(=S)c2C#N)ccc1O (stereo not drawn) has a documented GI50 of > 100 µM (inactive)

In plain terms, CN(C)CCNC(=O)c1cccc2c(NC(CCC(N)=O)C(=O)O)c3ccccc3nc12 (stereo not drawn) has a documented GI50 of 3.49 µM (inactive)

In plain terms, COP(=O)(/C=C/c1cc(C(=O)OCc2ccccc2)n(S(=O)(=O)c2ccccc2)c1)OC has a documented GI50 of > 100 µM (inactive)

In plain terms, CN(C)c1n2c3cc([N+](=O)[O-])ccc3[n+]3c(N(C)C)n4ccccc4c3c2c2cccc[n+]12.[O-][Cl+3]([O-])([O-])[O-].[O-][Cl+3]([O-])([O-])[O-] has a documented GI50 of 43.1 µM (inactive)

In plain terms, CC(C)(CN1CCOCC1)C(=O)/C=C/c1ccc(/C=C/C(=O)C(C)(C)CN2CCOCC2)cc1 has a documented GI50 of 1.55 µM (inactive)

In plain terms, O=C(NNC(=O)c1ccccc1S)c1ccccc1S [BIS(THIOSALICYL)HYDRAZIDE] has a documented GI50 of 23.4 µM (inactive)

====

Tested on: Malme-3M
Method description: NCI tumour cell line growth inhibition, 48 h
Calls of active or inactive are those of the source. Cut-off read from the data, not from the text of the source: active = GI50 up to about 1.1 µM and inactive = higher.
Select the matching outcome among active, inactive

INPUT: Fill in: this test's call for C=C1[C@H](OCC(C)C)[C@@H](O)[C@@H](OC(=O)c2cccnc2)C(C)(C)/C=C/[C@H](C)[C@H](OC(C)=O)[C@@]2(O)C[C@@](C)(OC(C)=O)[C@H](OC(=O)c3ccccc3)[C@@H]2[C@H]1OC(C)=O is ___
OUTPUT: active

INPUT: Fill in: this test's call for O=C(O)CNC(=O)C(CSC(=O)OCC1c2ccccc2-c2ccccc21)NC(=O)CCC(NC(=O)OCC1c2ccccc2-c2ccccc21)C(=O)O (configuration not stated) is ___
OUTPUT: inactive

INPUT: Fill in: this test's call for CC(=O)N[C@@H](Cc1ccc(O)cn1)C(=O)NCc1ccc2c(c1)OCO2 is ___
OUTPUT: inactive

INPUT: Fill in: this test's call for c1ccc2c(c1)nnn1c3cnccc3nc21 is ___
OUTPUT: inactive

INPUT: Fill in: this test's call for CN(C)c1ccc(/C=C(\NC(=O)c2ccccc2)c2nc3cncnc3[nH]2)cc1 is ___
OUTPUT: inactive

INPUT: Fill in: this test's call for C/C(=C\CNc1ncnc2c1ncn2CCC(=O)OC(C)(C)C)CO is ___
OUTPUT: inactive

INPUT: Fill in: this test's call for CCOC(=O)c1nc(SC)sc1NC(=O)c1ccc(OC)cc1 is ___
OUTPUT: inactive

====

Test system: IGROV-1
Method description: NCI tumour cell line growth inhibition, 48 h
Active and inactive are the calls of the source. No stated cut-off is given here; in the data, active = GI50 up to about 1.1 µM and inactive = higher.
Parameter measured: GI50

In plain terms, S=C1NC(c2ccccc2)=NC(Cc2ccccc2)(c2ccccc2)N1c1ccccc1 (stereo unspecified) has a documented GI50 of > 100 µM (inactive)

In plain terms, O=C1NC(c2ccccc2)N=C2Oc3ccccc3C=C12 (stereo unspecified) has a documented GI50 of 0.535 µM (active)

In plain terms, C/C(=N\NC(N)=O)C(CN1CCOCC1)C(c1ccccc1)c1c(O)c2ccccc2oc1=O (stereo unspecified) has a documented GI50 of > 100 µM (inactive)

In plain terms, NC(=O)c1cc2cc(Cl)cc(Cl)c2o/c1=N\c1ccc(F)cc1 has a documented GI50 of 26.4 µM (inactive)

In plain terms, O=C(O)C(F)(OC(F)(F)C(F)(OC(F)(F)C(F)(F)C(F)(F)F)C(F)(F)F)C(F)(F)F (stereo unspecified) has a documented GI50 of > 100 µM (inactive)

In plain terms, COc1ccc(C(NS(=O)(=O)c2ccc(C)cc2)c2c(C(CBr)OC)c3ccccc3n2S(=O)(=O)c2ccccc2)cc1OC (stereo unspecified) has a documented GI50 of > 100 µM (inactive)

====

Tested on: HOP-18
Method description: NCI tumour cell line growth inhibition, 48 h
Active and inactive are the calls of the source. No stated cut-off is given here; in the data, active = GI50 up to about 1.1 µM and inactive = higher.
Parameter measured: GI50

In plain terms, COc1cc(C2c3cc4c(cc3[C@@H](Nc3cccc(O)c3)C3COC(=O)[C@H]23)OCO4)cc(OC)c1O (some centres not stated) has a documented GI50 of 8.59 µM (inactive)

In plain terms, COc1cc2c(cc1OC)C(Cc1ccc(Oc3cc(CC4c5cc(OC)c(OC)cc5CCN4C)ccc3O)cc1)N(C)CC2 (configuration not stated) has a documented GI50 of 26.5 µM (inactive)

In plain terms, COC(=O)CC1(O)C(=O)OCc2c1cc1n(c2=O)Cc2c-1nc1ccccc1c2OC (configuration not stated) has a documented GI50 of 0.522 µM (active)

In plain terms, CCOC(=O)c1cc(OC(=O)CC)c2c(OC)ccc(OC)c2c1 has a documented GI50 of > 100 µM (inactive)

In plain terms, C=C(C)C(=O)OC1CCC2(C)C(CCC3C2CCC2(C)C(c4ccc(=O)oc4)CC4OC432)C1 (configuration not stated) has a documented GI50 of 13.3 µM (inactive)

In plain terms, N=C(NNS(=O)(=O)c1ccccc1)Oc1ccc(Br)cc1Br has a documented GI50 of > 100 µM (inactive)

In plain terms, COC1C(O)CC(OC2CC(OC3CC(O[C@@H]4C(=O)c5c(cc6cc(OC7CC(OC8CC(O)C(O)C(C)O8)C(O)C(C)O7)c(C)c(O)c6c5O)C[C@H]4[C@H](OC)C(=O)[C@@H](O)[C@@H](C)O)OC(C)C3O)OC(C)C2O)OC1C (some centres not stated) has a documented GI50 of 0.0211 µM (active)

In plain terms, CC[C@@]1(OC(=O)CCC(=O)O)C(=O)OCc2c1cc1n(c2=O)Cc2cc3ccccc3nc2-1 has a documented GI50 of 0.492 µM (active)

In plain terms, CCC1(N=[N+]=[N-])C(=O)Nc2cc(C)ccc2C1=O (configuration not stated) has a documented GI50 of 32.6 µM (inactive)

In plain terms, O=C(C#Cc1ccccc1)NC/C=C/c1ccccc1 has a documented GI50 of > 100 µM (inactive)

In plain terms, [N-]=[N+]=NC12CC3C4CC5CC3C(C1)C(C5)C4C2 has a documented GI50 of > 100 µM (inactive)

In plain terms, OCCN(CCO)c1ncnc2c1sc(=S)n2-c1ccccc1 has a documented GI50 of > 100 µM (inactive)

In plain terms, COC(=O)c1ccc(C(=O)OC)c2nc3cc(Cl)ccc3nc12 has a documented GI50 of > 100 µM (inactive)

In plain terms, CSc1nc(-c2ccc(Cl)cc2)c(C#N)c(=O)n1C1OC(COC(C)=O)C(OC(C)=O)C(OC(C)=O)C1OC(C)=O (configuration not stated) has a documented GI50 of 29.9 µM (inactive)

In plain terms, C=CCCCCCCCCC(=O)O has a documented GI50 of 125 µM (inactive)

In plain terms, O=C(N/C(=C\c1ccc(/C=C(\NC(=O)c2ccccc2)c2nc3cc([N+](=O)[O-])ccc3[nH]2)cc1)c1nc2cc([N+](=O)[O-])ccc2[nH]1)c1ccccc1 has a documented GI50 of > 100 µM (inactive)

In plain terms, Cc1nc(Nc2ccccc2)sc1C(=O)CC(=O)C(=O)NC12CC3CC(CC(C3)C1)C2 has a documented GI50 of > 100 µM (inactive)
